- Target or test system: flag-tagged HIF1α (AA 786-826) / His6-tagged p300 (AA 323-423) complex (Homo sapiens, UniProt Q09472)
- Construct: His6-tagged p300 (AA 323-423); made in house; host or cells: E. coli (pETDuet vector)
- Method summary: HIF1α p300 displacement assay (TR FRET, +CHAPS)
- Type: binding
- Run conditions: read-out: IC50 (nM) (HIF1α_p300 Displacement + CHAPS)
Bridge positions count the residues as written; N and C are the ends. Square brackets hold non-standard residues; d marks the D form. Peptide text beside a SMILES is read from it. S5 = C=CCCC[C@](C)(N)C(=O)O; Nle = CCCC[C@H](N)C(=O)O
# IC50 listing for each entry below
Test readout: IC50

{"columns": ["Compound", "Test readout", "Result"],
 "data": [
  ["CCCC[C@@H]1NC(=O)[C@H](CC(C)C)NC(=O)[C@H]([C@@H](C)O)NC(=O)[C@@](C)(NC(=O)[C@H](C)NC(=O)[C@H](CC(=O)O)NC(=O)[C@@H](NC(=O)[C@H](Cc2ccccc2)NC(C)=O)[C@@H](C)CC)CCCC=CCCCC2(CCCC=CCCC[C@](C)(C(=O)N[C@@H](CCCC)C(=O)N[C@@H](C)C(=O)N[C@@H](CC(C)C)C(N)=O)NC(=O)[C@H]([C@@H](C)CC)NC(=O)[C@H](C(C)C)NC(=O)[C@H](CO)NC2=O)NC1=O (some centres unmarked) [SP-214]", "IC50", "> 700 nM"],
  ["CC[C@H](C)[C@H](NC(=O)[C@H](Cc1ccccc1)NC(C)=O)C(=O)N[C@@H](CO)C(=O)N[C@@H](CCC(=O)O)C(=O)N[C@@H](CCC(=O)O)C(=O)N[C@H](C(=O)N[C@@H](CC(C)C)C(=O)N[C@@H](CCSC)C(=O)N[C@@]1(C)CCCC=CCCC[C@@](C)(C(=O)N[C@@H](CCSC)C(=O)N[C@@H](C)C(=O)N[C@@H](CC(C)C)C(N)=O)NC(=O)[C@H]([C@@H](C)CC)NC(=O)[C@H](C(C)C)NC(=O)[C@H](CC(C)C)NC1=O)C(C)C [SP-230] (Ac-FISEEVLM[S5]LVI[S5]MAL-NH2; staple 9-13)", "IC50", "400 to 700 nM"],
  ["CCCC[C@H](NC(=O)[C@H](C)NC(=O)[C@@H](NC(=O)[C@@H](NC(=O)[C@H](CC(C)C)NC(=O)[C@]1(C)CCCC=CCCC[C@](C)(NC(=O)[C@H](CCC(=O)O)NC(=O)[C@H](CC(=O)O)NC(=O)[C@@H](NC(=O)[C@H](Cc2ccccc2)NC(C)=O)[C@@H](C)CC)C(=O)N[C@@H](C(C)C)C(=O)N[C@@H](CC(C)C)C(=O)N[C@@H](CCCC)C(=O)N1)C(C)C)[C@@H](C)CC)C(=O)N[C@@H](C)C(=O)N[C@@H](CC(C)C)C(N)=O [SP-122] (Ac-FIDE[S5]VL[Nle][S5]LVIA[Nle]AL-NH2; staple 5-9)", "IC50", "200 to 400 nM"],
  ["CCCC[C@@H]1NC(=O)[C@H](CC(C)C)NC(=O)[C@H]([C@@H](C)O)NC(=O)[C@@](C)(NC(=O)[C@H](CCC(=O)O)NC(=O)[C@H](CC(=O)O)NC(=O)[C@@H](NC(=O)[C@H](Cc2ccccc2)NC(C)=O)[C@@H](C)CC)CCCC=CCCCC2(CCCC=CCCC[C@](C)(C(=O)N[C@@H](CCCC)C(=O)N[C@@H](C)C(=O)N[C@@H](CC(C)C)C(N)=O)NC(=O)[C@H]([C@@H](C)CC)NC(=O)[C@H](C(C)C)NC(=O)[C@H](CC(C)C)NC2=O)NC1=O (some centres unmarked) [SP-207]", "IC50", "≤ 200 nM"],
  ["CCCC[C@@H]1NC(=O)[C@H](CC(C)C)NC(=O)[C@H](C(C)C)NC(=O)[C@@](C)(NC(=O)[C@H](CCC(=O)O)NC(=O)[C@H](CC(=O)O)NC(=O)[C@@H](NC(=O)[C@H](Cc2ccccc2)NC(C)=O)[C@@H](C)CC)CCCC=CCCCC2(CCCC=CCCC[C@](C)(C(=O)N[C@@H](CCCC)C(=O)N[C@@H](C)C(=O)N[C@@H](CC(C)C)C(N)=O)NC(=O)[C@H]([C@@H](C)CC)NC(=O)[C@H](C(C)C)NC(=O)[C@H](CC(N)=O)NC2=O)NC1=O (some centres unmarked) [SP-210]", "IC50", "200 to 400 nM"]
]}
